Test system: OVCAR-4
Run description: NCI one-dose screening, ovarian cancer OVCAR-4
Type: cell-based, human
Condition description: 10 μM
Is Growth Percent OVCAR-4 at least 10%? Then yes (1). If not, no (0).

- O=C1c2ccccc2C(=O)c2c1cc(Sc1ccccc1)c1nsnc21: yes (1)
- Cc1cccc(C)c1Sc1cc2c(c3nsnc13)C(=O)c1ccccc1C2=O: no (0)
- O=C1c2ccccc2C(=O)c2c1ccc1nsnc21: no (0)
- CCSc1cc2c(c3nsnc13)C(=O)c1ccccc1C2=O: no (0)
- O=C1c2ccccc2C(=O)c2c1cc(N1CCOCC1)c1nsnc21: yes (1)
- O=C1c2ccccc2C(=O)c2c1cc(Sc1ccc(Cl)cc1)c1nsnc21: yes (1)
- O=C1c2ccccc2C(=O)c2c1cc(N1CCSCC1)c1nsnc21: no (0)
- O=C1c2ccccc2C(=O)c2c1cc(Cl)c1nsnc21: no (0)
- O=C1c2ccccc2C(=O)c2c1cc(Nc1ccc(Cl)cc1)c1nsnc21: no (0)
- O=C1c2ccccc2C(=O)c2c1cc(SCc1ccccc1)c1nsnc21: no (0)
- O=C1c2ccccc2C(=O)c2c1cc(SCc1ccc(Cl)cc1)c1nsnc21: yes (1)
- O=C1c2ccccc2C(=O)c2c1cc(Nc1ccc(Cl)cc1F)c1nsnc21: no (0)
- Cc1ccccc1Nc1cc2c(c3nsnc13)C(=O)c1ccccc1C2=O: no (0)

---

Tested on: OVCAR-5
Run description: NCI one-dose screening, ovarian cancer OVCAR-5
Format: cell-based, human
Condition description: 10 μM
Attribute measured: Growth Percent OVCAR-5 (%)

* O=C1c2ccccc2C(=O)c2c1cc(Nc1ccc(Cl)cc1)c1nsnc21 | 121.21
* O=C1c2ccccc2C(=O)c2c1cc(Nc1ccc(Cl)cc1F)c1nsnc21 | 114.60
* Cc1ccc(Sc2cc3c(c4nsnc24)C(=O)c2ccccc2C3=O)c(C)c1 | 106.46
* O=C1c2ccccc2C(=O)c2c1cc(Sc1ccc(F)cc1F)c1nsnc21 | 110.21
* CCSc1cc2c(c3nsnc13)C(=O)c1ccccc1C2=O | 115.03
* COc1ccc(Sc2cc3c(c4nsnc24)C(=O)c2ccccc2C3=O)cc1 | 103.00
* CCOc1cccc(Sc2cc3c(c4nsnc24)C(=O)c2ccccc2C3=O)c1 | 116.60
* O=C1c2ccccc2C(=O)c2c1cc(Sc1ccccc1Br)c1nsnc21 | 120.52
* Cc1ccccc1Nc1cc2c(c3nsnc13)C(=O)c1ccccc1C2=O | 79.06
* COc1cccc(Sc2cc3c(c4nsnc24)C(=O)c2ccccc2C3=O)c1 | 122.58
* O=C1c2ccccc2C(=O)c2c1cc(N1CCSCC1)c1nsnc21 | 112.62
* O=C1c2ccccc2C(=O)c2c1cc(SCc1ccc(Cl)cc1)c1nsnc21 | 104.48

---

Collected Growth Percent 786-0 values appear next to each entry.
System: 786-O
Run description: NCI one-dose screening, renal cancer 786-O
Type: cell-based, human
Condition description: 10 μM
Attribute measured: Growth Percent 786-0 (%)

* O=C1c2ccccc2C(=O)c2c1cc(Nc1ccc(Cl)cc1F)c1nsnc21 | 114.97
* COc1ccc(Sc2cc3c(c4nsnc24)C(=O)c2ccccc2C3=O)cc1 | 94.93
* O=C1c2ccccc2C(=O)c2c1cc(N1CCOCC1)c1nsnc21 | 109.16
* Cc1ccccc1Nc1cc2c(c3nsnc13)C(=O)c1ccccc1C2=O | 63.62
* O=C1c2ccccc2C(=O)c2c1ccc1nsnc21 | −25.98
* O=C1c2ccccc2C(=O)c2c1cc(SCc1ccccc1)c1nsnc21 | 92.60
* CCOc1cccc(Sc2cc3c(c4nsnc24)C(=O)c2ccccc2C3=O)c1 | 100.25
* O=C1c2ccccc2C(=O)c2c1cc(Cl)c1nsnc21 | 102.14
* O=C1c2ccccc2C(=O)c2c1cc(Sc1ccc(Cl)cc1)c1nsnc21 | 108.70
* O=C1c2ccccc2C(=O)c2c1cc(Sc1cccc(Cl)c1)c1nsnc21 | −2.06
* O=C1c2ccccc2C(=O)c2c1cc(Sc1ccccc1)c1nsnc21 | 110.04
* O=C1c2ccccc2C(=O)c2c1cc(SCc1ccc(Cl)cc1)c1nsnc21 | 117.98
